Output: class label from intrinsic clearance, human liver microsomes. Mapping: group 1: < 20 mL/min/kg; group 2: ≥ 20 mL/min/kg and < 70 mL/min/kg; group 3: ≥ 70 mL/min/kg

Which category fits this record: "COCC(=O)NC1(C#Cc2ccc(NC(=O)C3CC3)nc2)CCCCC1"
group 1

Which category fits this record: "O=[N+]([O-])c1ccc(S(=O)(=O)Nc2cccc(-c3nc4ccccc4[nH]3)c2)cc1"
group 2

Which category fits this record: "O=C(c1cccc(N2CCNC2=O)c1)N1CCc2ccccc2C1"
group 1

Which category fits this record: CNC(=O)C1(Cc2ccc(-c3ccncc3)cc2)CCN(Cc2cccc(F)c2)C1 (configuration not stated)
group 3

Which category fits this record: "FC(F)(F)c1nc(Nc2ccc(-n3cnnn3)cc2)c2ccccc2n1"
group 1

Which category fits this record: "CN(C)Cc1ccc(-c2ccccc2C(=O)O)cc1"
group 1

Which category fits this record: "Nc1ccccc1-c1nc(C2CC2)no1"
group 3

Which category fits this record: "Cn1cc(NC(=O)[C@@H]2CCCCN2C(=O)OC(C)(C)C)cn1"
group 1

Which category fits this record: "O=C(Nc1cccc2ncccc12)[C@H]1CCCN(S(=O)(=O)c2ccc(F)cc2)C1"
group 2

Which category fits this record: "[2H]C([2H])([2H])NC(=O)c1nnc(NC(=O)C2CC2)cc1Nc1cccc(-c2ncn(C)n2)c1OC"
group 1

* * *

I'd appreciate it if you could supply log10(intrinsic clearance, human liver microsomes) values for the items below.
A difference of one corresponds to tenfold intrinsic clearance, human liver microsomes; all values are log10 with intrinsic clearance, human liver microsomes in mL/min/kg.

As a guide, the following entries are already answered.
>>> test_value("CN1CCCn2c1cc(OCc1cc(F)c(Oc3ccc(C(F)(F)F)nc3)c(F)c1)nc2=O")
1.29
>>> test_value("Cc1nc(C)c2c(C)c(C(=O)N(C)Cc3ccc(C)o3)sc2n1")
1.56
>>> test_value("COc1cc2c(cc1OC)CN(C(=O)C1CCCN(S(=O)(=O)c3ccc(F)cc3)C1)CC2 (stereo not drawn)")
2.18
>>> test_value("OC1CCN(c2ncc(-c3cnccn3)c(-c3cccs3)n2)CC1")
0.85
>>> test_value("CC(C)n1cnnc1-c1cccc(N2Cc3ccc(Br)cc3C2=O)n1")
0.78
>>> test_value("CCc1cc(CN(C)c2nccc(-c3ccc(C)nc3C)n2)on1")
1.95
>>> test_value("Cc1cc(C)n2nc(C)c(C(=O)NCC3CC3)c2n1")
1.67
>>> test_value("O=C(CN1CCc2ccccc21)N1CCC(c2nc3ccccc3[nH]2)CC1")
2.05

Give log10(intrinsic clearance, human liver microsomes) for each of the items listed below.
1. O=C(NCC1CCC2(CC1)OCCO2)c1[nH]nc2c1CCCC2
2. Cc1cccc(C)c1NCc1noc(C2CC2)n1
3. Cc1ccc2oc([C@H]3CCN(Cc4ccc(C#N)cc4)C3)nc2c1
4. CCNC(=O)N1CCC2(CCc3ccccc3O2)CC1
5. O=C(C1CCCCC1)N1CCC[C@H]1Cn1nnc(-c2cccs2)n1

1: 0.84; 2: 2.31; 3: 1.62; 4: 0.79; 5: 2.11

Give log10(intrinsic clearance, human liver microsomes) for each of the items listed below.
1. C[C@@H](/C=C\C(F)(F)F)Oc1cc(-c2cc(-c3cc(CN(C)C)cs3)cnc2N)ccc1C(N)=O
2. O[C@@H]1C[C@@H](c2nc(-c3cccnc3)no2)N(CCCc2ccccc2)C1
3. Cc1nc2n(c1CN1CCN(c3ncccn3)CC1)CCCC2
4. Cc1nn(C)c(C)c1CCC(=O)N1CCN(C)Cc2ccccc21

[1.31, 2.03, 1.46, 1.87]

* * *

Quick rule for you: fraction unbound, human plasma under 0.007 gets Yes, anything else gets No.

Below are worked cases with known answers.
>>> assigned_label("Cc1cccc(/C=N/Nc2cc(N3CCOCC3)nc(OCCc3ccccn3)n2)c1")
"Yes"
>>> assigned_label("[2H]C([2H])([2H])NC(=O)c1nnc(NC(=O)C2CC2)cc1Nc1cccc(-c2ncn(C)n2)c1OC")
"No"
>>> assigned_label("CCn1cc(C(=O)O)c(=O)c2c(N)c(F)c(NC3CCCCC3)cc21")
"No"
>>> assigned_label("Cc1cccc(-c2nc(C34CCC(C(N)=O)(CC3)CC4)[nH]c2-c2ccc3c(c2)OCO3)n1")
"No"

Below: the item to evaluate.
Is 0.007 strictly greater than the compound's reported fraction unbound, human plasma? compound: "CC(=O)N1CCN(c2nc(C(F)(F)F)nc3sc(C)c(C)c23)CC1"
No

* * *

I'd appreciate it if you could supply aqueous solubility values for the items below.
Stated Conditions: pH 6.8
Answers are plain numbers, in µg/mL.

>>> test_value("Cc1cc(C(=O)NCC2(c3ccccc3)CC2)on1")
40.1
>>> test_value("CCc1ccc2nc(C)cc(C(=O)N3CC(c4cccnc4)C3)c2c1")
39.3
>>> test_value("Clc1cc2c(NC3CCCC3)nnc(-c3ccncc3)c2cc1Cl")
0.19
>>> test_value("CC(C)CCN1CCn2c1nc1c2c(=O)n(C)c(=O)n1C")
46.6
>>> test_value("COc1ccc2nc(C)nc(N3CC(O)(c4ccc(F)cc4)C3)c2c1")
19.4

Give aqueous solubility for each of the items listed below.
1. N#Cc1cccc(CN2CCN(CCO)CC2)c1
2. O=c1c(-n2ccnn2)c[nH]n1-c1cc(N2CCOCC2)ncn1
3. Cn1ccc2c(C(=O)Nc3ncn(Cc4cccnc4)n3)cccc21
4. CCn1c(=O)c2cc(OC)c(OC)cc2n(Cc2ccc(Cl)cc2)c1=O
5. CN(CC(=O)NC1CC1)C(=O)C1C2CC3CC(C2)CC1C3 (stereo not drawn)
6. CCOc1ccccc1C(=O)N1CCC(c2nc(-c3ccc(OC)cc3)c(C(N)=O)[nH]2)CC1

1. 29.3
2. 30.7
3. 42.5
4. 0.4
5. 50.8
6. 46.4

Give aqueous solubility for each of the items listed below.
1. Cc1nc(-c2ccccc2)c(C(=O)Nc2ccc(Cl)cc2)s1
2. C(=C\c1ccccc1)/CNCc1ccc2c(c1)OCO2
3. COC(=O)c1c(C)[nH]c(C(=O)OCC(=O)N(C)Cc2cccs2)c1C
4. CCNC(=O)N1CCc2nc3ccc(F)cn3c(=O)c2C1
5. Cc1cc(C)cc(NC(=O)COC(=O)c2nn(C)c(=O)c3ccccc23)c1
6. O=C(c1ccccn1)N1CCCC(c2cccc(-c3cccc(Cl)c3)n2)C1 (stereo not drawn)

[0.35, 40.1, 40.6, 57.7, 0.97, 29.9]

* * *

Measured Metric: intrinsic clearance, rat liver microsomes (mL/min/kg)
Give bare numbers, in mL/min/kg.

>>> test_value("CSc1ccccc1NC(=O)CN1CCCC(c2nc3ccccc3o2)C1 (configuration not stated)")
4670
>>> test_value("Cc1n[nH]c(C2CCN(C(=O)NC3CCN(c4ccc(F)cc4)CC3)CC2)n1")
38.3

Give intrinsic clearance, rat liver microsomes for each of the items listed below.
1. Cc1ccc(C(=O)N(C)Cc2ccccn2)c(O)c1
2. CN(C)[C@@H]1CN(C(=O)COc2ccccc2)C[C@H]1O
3. Cc1cc(CN2CCC(N(C)c3ncc(Cl)cn3)CC2)on1

1: 479; 2: 17.6; 3: 127

* * *

I'd appreciate it if you could supply intrinsic clearance, human liver microsomes values for the items below.
Numbers only, in mL/min/kg.

As a guide, the following entries are already answered.
>>> test_value("O=C(Nc1ccc(F)cc1F)N1CCn2c1nc1ccccc12")
78.5
>>> test_value("O=C(/C=C/c1ccc(Cl)cc1)N1CCC2(CC1)CN(Cc1ccc(Cl)c(Cl)c1)C(=O)O2")
22.8
>>> test_value("Cc1nc(CN(C)C(=O)C2c3ccccc3-c3ccccc32)no1")
15
>>> test_value("CCOC(=O)N1CCN(C(=O)Nc2cccc3c2CCCC3)CC1")
37.6
>>> test_value("Cc1cc(OCCCS(C)(=O)=O)cc(C)c1-c1cccc(COc2ccc3c(c2)OC[C@@H]3CC(=O)O)c1")
5.67
>>> test_value("CNc1nc(C)nc(N[C@H]2CCC[C@@H](C(=O)NCc3ccc(C#N)cc3C(F)(F)F)C2)n1")
18.4

Give intrinsic clearance, human liver microsomes for each of the items listed below.
1. Cc1nnc(NCc2cccnc2)c2ccccc12
2. O=C(C1CCC(O)CC1)N1CCCN(c2ccc(F)cc2)CC1 (centres undefined)
3. CCc1nc(C)c(Cn2ccnc2-c2cnc(N3CCCC3)nc2)s1
4. CN(C)c1cc(CNc2ccc(C#N)cn2)ccn1
5. O=C(CSc1nccn1C1CC1)Nc1c(Cl)cc(Cl)cc1C(=O)O
6. CN(C)c1cccc(Cn2ccnc2-c2ccc(O)cc2)c1

[5.21, 11.9, 31.9, 10.4, 41.6, 77.7]

* * *

Measured Metric: intrinsic clearance, human liver microsomes (L/h/kg)
Answers are plain numbers, in L/h/kg.

As a guide, the following entries are already answered.
>>> test_value("O=S(=O)(Cc1csc(C2CCCC2)n1)C1CCCC1")
5.56
>>> test_value("c1nc(Nc2ccc3c(c2)OCCCO3)c2sccc2n1")
5.52
>>> test_value("O=C(Cc1ccccc1F)N1CCN(c2nccn3nc4c(c23)CCCC4)CC1")
7.95

// next entry
Entry "CN(CC(=O)NC1(C#N)CCCCC1)c1cccc(C#N)c1" : reported intrinsic clearance, human liver microsomes = ?
5.15
